# test.summary: in vivo
# measurement.conditions: mouse, iv
quantity: LD50 (mg/kg)
Return type: number; implicit unit mg/kg.

Quick check: LD50 of CC(C)(C)NCC(O)c1cc(O)cc(O)c1 (centres unmarked) [Terbutaline, reference compound] ? 40

Quick check: LD50 of CC(C)(C)NCC(O)c1ccc(O)c(NC(=O)c2cccc([N+](=O)[O-])c2)c1.Cl (centres unmarked) ? 60

Quick check: LD50 of CC(C)(C)NCC(O)c1ccc(O)c(NC(=O)c2ccc([N+](=O)[O-])cc2)c1.Cl (centres unmarked) ? 40

Quick check: LD50 of COc1c(C)cc(CNc2cc(C(O)CNC(C)(C)C)ccc2O)cc1C.Cl (centres unmarked) ? 20

Quick check: LD50 of CC(C)Oc1ccc(CNc2cc(C(O)CNC(C)(C)C)ccc2O)cc1.Cl (centres unmarked) ? 20

This collection of values is drawn from patent US4072760A.
